study-target: rNHE3 (Rattus norvegicus, UniProt P26433)
Construct: expressed in transfected cells; host or cells: LAP1 cells (fibroblasts)
Sequence (P26433 29-831): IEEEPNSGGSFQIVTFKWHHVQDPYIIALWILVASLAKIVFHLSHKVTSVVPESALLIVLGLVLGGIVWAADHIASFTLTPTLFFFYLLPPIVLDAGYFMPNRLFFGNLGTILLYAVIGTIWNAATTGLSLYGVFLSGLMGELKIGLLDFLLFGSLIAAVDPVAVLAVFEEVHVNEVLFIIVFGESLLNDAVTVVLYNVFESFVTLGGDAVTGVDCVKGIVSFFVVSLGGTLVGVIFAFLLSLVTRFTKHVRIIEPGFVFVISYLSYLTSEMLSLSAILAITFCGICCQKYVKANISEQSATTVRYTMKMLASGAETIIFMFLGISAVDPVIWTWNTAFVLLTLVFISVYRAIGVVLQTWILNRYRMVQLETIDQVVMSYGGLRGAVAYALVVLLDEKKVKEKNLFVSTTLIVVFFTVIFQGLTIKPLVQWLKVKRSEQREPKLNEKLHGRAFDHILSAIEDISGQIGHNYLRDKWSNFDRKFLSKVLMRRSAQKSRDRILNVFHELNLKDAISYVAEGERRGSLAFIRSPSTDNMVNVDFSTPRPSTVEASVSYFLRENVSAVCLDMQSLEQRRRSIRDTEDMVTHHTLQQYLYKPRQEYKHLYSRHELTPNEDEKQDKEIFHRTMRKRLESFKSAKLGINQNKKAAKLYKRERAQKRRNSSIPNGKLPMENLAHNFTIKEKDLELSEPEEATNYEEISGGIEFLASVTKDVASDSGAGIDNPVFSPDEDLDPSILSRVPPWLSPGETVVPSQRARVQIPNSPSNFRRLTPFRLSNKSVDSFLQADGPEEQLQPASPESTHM
procedure-details: Recovery of intracellular pH after acidification (BCECF fluorescence) in LAP1 fibroblasts
Format: cell-based
Where a name gives a salt, the structure may show the parent alone.
endpoint-label: IC50 (µM)

# count of solved cases: 3
C=CCN(c1nc2ccccc2[nH]1)c1c(Cl)cccc1Cl	1.5
CCN(c1nc2ccccc2[nH]1)c1c(Cl)cccc1Cl	0.57
Clc1cccc(Cl)c1N(c1nc2ccccc2[nH]1)C1CCCC1	8.3

P: CC(C)N(c1nc2ccccc2[nH]1)c1c(Cl)cccc1Cl
Q: CN(c1nc2ccccc2[nH]1)c1c(Cl)cccc1Cl [Example 2, hydrochloride]
R: CN(c1nc2cc(F)ccc2[nH]1)c1c(Cl)cccc1Cl
INPUT: Descending sort on IC50 required. Form field (ranking): labels in requested order.
OUTPUT: P, R, Q
(P: 9.3 µM, R: 3.3 µM, Q: 0.53 µM)
